# Tested on: MDA-MB-435
# protocol description: NCI tumour cell line growth inhibition, 48 h
Activity calls are given as the source filed them. No stated cut-off is given here; in the data, active = GI50 up to about 1.1 µM and inactive = higher.
Overview of reported GI50 across a group of compounds:

Ask | For the compound COc1c(F)c(F)c(C(=O)/C=C2\Nc3ccccc3NC2=O)c(F)c1F , what GI50 is on record?
Reply | > 10 µM (inactive)

---

# Tested on: UACC-62
# protocol description: NCI tumour cell line growth inhibition, 48 h
Calls of active or inactive are those of the source. Rule as the data show it: active = GI50 up to about 1.1 µM and inactive = higher.
Attribute: GI50

Solved cases below.
{"molecule": "C=C(C[C@@H](O)[C@H](C)NC(=O)OCc1ccccc1)C(=O)OC(C)(C)C", "recorded value": "51.2 µM (inactive)"}
{"molecule": "Cc1c(Cl)cccc1/N=N/C(=O)NNc1cccc(Cl)c1C", "recorded value": "11.9 µM (inactive)"}
{"molecule": "Cc1ccccc1NC(=O)C(=O)C(C#N)c1ccccc1C (stereo unspecified)", "recorded value": "> 100 µM (inactive)"}
{"molecule": "Nc1nc(N)c2cc(-c3cc4ccccc4[nH]3)ccc2n1", "recorded value": "17.4 µM (inactive)"}
{"molecule": "Cc1ccc(-c2c(C#N)c(-c3ccc(Cl)cc3)c(C#N)c(=O)n2NS(=O)(=O)c2ccccc2)cc1", "recorded value": "58.6 µM (inactive)"}
{"molecule": "O=c1c2cc(Br)ccc2oc2nc3n(c(=O)c12)CCCS3", "recorded value": "> 100 µM (inactive)"}
{"molecule": "C=CCn1c2c(sc1=S)C(S)NC=N2 (stereo unspecified)", "recorded value": "27.5 µM (inactive)"}
{"molecule": "NC(C(=O)O)c1cc(O)no1 (stereo unspecified)", "recorded value": "> 100 µM (inactive)"}
{"molecule": "CC1(C)C=Cc2c(cc3oc4ccc5c(c4c(=O)c3c2O)C=CC(C)(C)O5)O1", "recorded value": "> 100 µM (inactive)"}
{"molecule": "O=C1c2ccccc2C2(c3ccc(Cl)cc3)NCc3ccccc3CN12 (stereo unspecified)", "recorded value": "17.3 µM (inactive)"}

Please examine the following record next.
Ask | # query: GI50 of entry Cc1ccc([S+]([O-])c2sccc2C=O)cc1 (stereo unspecified)
Reply | 19.3 µM (inactive)

---

# Tested on: A549
# protocol description: NCI tumour cell line growth inhibition, 48 h
Calls of active or inactive are those of the source. No stated cut-off is given here; in the data, active = GI50 up to about 1.1 µM and inactive = higher.
measured parameter: GI50

Check out these entries, answers already filled in.
{"compound": "COC(=O)Cc1c(-c2[nH]c3ccccc3c2CC(=O)OC)[nH]c2ccccc12", "GI50": "> 52.6 µM (inactive)"}
{"compound": "O=C(CC1(O)C(=O)Nc2ccc(Br)cc21)c1cccc([N+](=O)[O-])c1 (stereo not given)", "GI50": "> 100 µM (inactive)"}
{"compound": "CSc1nc(=O)n(CCC#N)nc1SC", "GI50": "> 100 µM (inactive)"}
{"compound": "COC(=O)C1=Cc2cc(OC)c(OC)c(OC)c2[C@H](c2cc(OC)c(OC)c(OC)c2)C1C(=O)OC (stereo not given in full)", "GI50": "> 100 µM (inactive)"}

# context switch: different compound, same GI50
Ask | Field request: GI50 | item: C[C@H]1[C@H](N2CCCC2)O[Si](C(C)(C)C)(C(C)(C)C)[C@@H]1C
Reply | > 100 µM (inactive)
